Provide the recorded activity coefficient for the entries that follow.
Assay: activity coefficient (dimensionless); of the first substance listed, at infinite dilution; xn = mol fraction of the nth substance listed
Settings: 368.15 K; 101 kPa; Liquid; Chromatography; x1 = 0
Please give the numeric answer without any surrounding text.

Documented activity coefficient of CC1CCCCC1 [methylcyclohexane] + COCC[N+]1(C)CCCC1.O=S(=O)([N-]S(=O)(=O)C(F)(F)F)C(F)(F)F : 11.2

Documented activity coefficient of C=CCCCC [hex-1-ene] + COCC[N+]1(C)CCCC1.O=S(=O)([N-]S(=O)(=O)C(F)(F)F)C(F)(F)F : 7.96

Documented activity coefficient of CCCCO [butan-1-ol] + COCC[N+]1(C)CCCC1.O=S(=O)([N-]S(=O)(=O)C(F)(F)F)C(F)(F)F : 1.84

Documented activity coefficient of CCC(=O)OC [methyl propanoate] + COCC[N+]1(C)CCCC1.O=S(=O)([N-]S(=O)(=O)C(F)(F)F)C(F)(F)F : 1.01

Documented activity coefficient of CCCOCCC [dipropyl ether] + COCC[N+]1(C)CCCC1.O=S(=O)([N-]S(=O)(=O)C(F)(F)F)C(F)(F)F : 6.32

Documented activity coefficient of CCOC(C)(C)C [2-ethoxy-2-methylpropane] + COCC[N+]1(C)CCCC1.O=S(=O)([N-]S(=O)(=O)C(F)(F)F)C(F)(F)F : 5.85

Documented activity coefficient of CCOC(C)=O [ethyl acetate] + COCC[N+]1(C)CCCC1.O=S(=O)([N-]S(=O)(=O)C(F)(F)F)C(F)(F)F : 1.03

---

Assay: activity coefficient (dimensionless); of the first substance listed, at infinite dilution; xn = mol fraction of the nth substance listed
Details: 368.15 K; 101 kPa; Liquid; Chromatography; x1 = 0
Provide the recorded activity coefficient for the entries that follow.
Please give the numeric answer without any surrounding text.

Documented activity coefficient of CCC[N+](=O)[O-] [1-nitropropane] + COCC[N+]1(C)CCCC1.O=S(=O)([N-]S(=O)(=O)C(F)(F)F)C(F)(F)F : 0.747

Documented activity coefficient of C=CCCCCC [1-heptene] + COCC[N+]1(C)CCCC1.O=S(=O)([N-]S(=O)(=O)C(F)(F)F)C(F)(F)F : 11.4

Documented activity coefficient of CCOCC [diethyl ether] + COCC[N+]1(C)CCCC1.O=S(=O)([N-]S(=O)(=O)C(F)(F)F)C(F)(F)F : 2.78

Documented activity coefficient of CCCC(C)=O [pentan-2-one] + COCC[N+]1(C)CCCC1.O=S(=O)([N-]S(=O)(=O)C(F)(F)F)C(F)(F)F : 0.9

Documented activity coefficient of CCC(C)(C)C [2,2-dimethylbutane] + COCC[N+]1(C)CCCC1.O=S(=O)([N-]S(=O)(=O)C(F)(F)F)C(F)(F)F : 12

Documented activity coefficient of CCCCCCCCCC [decane] + COCC[N+]1(C)CCCC1.O=S(=O)([N-]S(=O)(=O)C(F)(F)F)C(F)(F)F : 51.3

Documented activity coefficient of CCCCCCCCC [nonane] + COCC[N+]1(C)CCCC1.O=S(=O)([N-]S(=O)(=O)C(F)(F)F)C(F)(F)F : 37.8

---

Provide the recorded activity coefficient for the entries that follow.
Test: activity coefficient (dimensionless); of the first substance listed, at infinite dilution; xn = mol fraction of the nth substance listed
Conditions: 338.15 K; 101 kPa; Liquid; Chromatography; x1 = 0
Please give the numeric answer without any surrounding text.

Documented activity coefficient of CCCCCC [hexane] + COCC[N+]1(C)CCCC1.O=S(=O)([N-]S(=O)(=O)C(F)(F)F)C(F)(F)F : 16.7

Documented activity coefficient of CCC(C)(C)OC [2-methoxy-2-methylbutane] + COCC[N+]1(C)CCCC1.O=S(=O)([N-]S(=O)(=O)C(F)(F)F)C(F)(F)F : 4.05

Documented activity coefficient of COC(C)(C)C [2-methoxy-2-methylpropane] + COCC[N+]1(C)CCCC1.O=S(=O)([N-]S(=O)(=O)C(F)(F)F)C(F)(F)F : 2.81

Documented activity coefficient of c1ccsc1 [thiophene] + COCC[N+]1(C)CCCC1.O=S(=O)([N-]S(=O)(=O)C(F)(F)F)C(F)(F)F : 0.909

Documented activity coefficient of CC1CCCCC1 [methylcyclohexane] + COCC[N+]1(C)CCCC1.O=S(=O)([N-]S(=O)(=O)C(F)(F)F)C(F)(F)F : 13.5

Documented activity coefficient of CC#N [acetonitrile] + COCC[N+]1(C)CCCC1.O=S(=O)([N-]S(=O)(=O)C(F)(F)F)C(F)(F)F : 0.472

Documented activity coefficient of C#CCCCC [1-hexyne] + COCC[N+]1(C)CCCC1.O=S(=O)([N-]S(=O)(=O)C(F)(F)F)C(F)(F)F : 3.28

---

Assay: activity coefficient (dimensionless); of the first substance listed, at infinite dilution; xn = mol fraction of the nth substance listed
Details: 368.15 K; 101 kPa; Liquid; Chromatography; x1 = 0
MEASURE: activity coefficient
Please give the numeric answer without any surrounding text.

Documented activity coefficient of C1COCCO1 [1,4-dioxane] + COCC[N+]1(C)CCCC1.O=S(=O)([N-]S(=O)(=O)C(F)(F)F)C(F)(F)F : 0.76

Documented activity coefficient of C1CCCC1 [cyclopentane] + COCC[N+]1(C)CCCC1.O=S(=O)([N-]S(=O)(=O)C(F)(F)F)C(F)(F)F : 5.98

Documented activity coefficient of CC(C)CO [2-methyl-1-propanol] + COCC[N+]1(C)CCCC1.O=S(=O)([N-]S(=O)(=O)C(F)(F)F)C(F)(F)F : 1.7

Documented activity coefficient of CC(C)OC(C)C [diisopropyl ether] + COCC[N+]1(C)CCCC1.O=S(=O)([N-]S(=O)(=O)C(F)(F)F)C(F)(F)F : 6.23

Documented activity coefficient of C1CCOC1 [tetrahydrofuran] + COCC[N+]1(C)CCCC1.O=S(=O)([N-]S(=O)(=O)C(F)(F)F)C(F)(F)F : 0.88

Documented activity coefficient of CCCC(=O)OC [methyl butanoate] + COCC[N+]1(C)CCCC1.O=S(=O)([N-]S(=O)(=O)C(F)(F)F)C(F)(F)F : 1.38

Documented activity coefficient of CO [methanol] + COCC[N+]1(C)CCCC1.O=S(=O)([N-]S(=O)(=O)C(F)(F)F)C(F)(F)F : 0.972

---

Experiment: activity coefficient (dimensionless); of the first substance listed, at infinite dilution; xn = mol fraction of the nth substance listed
Details: 368.15 K; 101 kPa; Liquid; Chromatography; x1 = 0
MEASURE: activity coefficient
Please give the numeric answer without any surrounding text.

Documented activity coefficient of CCCC=O [butanal] + COCC[N+]1(C)CCCC1.O=S(=O)([N-]S(=O)(=O)C(F)(F)F)C(F)(F)F : 0.876

Documented activity coefficient of CC(C)CC(C)(C)C [2,2,4-trimethylpentane] + COCC[N+]1(C)CCCC1.O=S(=O)([N-]S(=O)(=O)C(F)(F)F)C(F)(F)F : 20

Documented activity coefficient of CCCCC [pentane] + COCC[N+]1(C)CCCC1.O=S(=O)([N-]S(=O)(=O)C(F)(F)F)C(F)(F)F : 10.5

Documented activity coefficient of C#CCCCCCC [1-octyne] + COCC[N+]1(C)CCCC1.O=S(=O)([N-]S(=O)(=O)C(F)(F)F)C(F)(F)F : 6.27

---

Assay: activity coefficient (dimensionless); of the first substance listed, at infinite dilution; xn = mol fraction of the nth substance listed
Details: 328.15 K; 101 kPa; Liquid; Chromatography; x1 = 0
Provide the recorded activity coefficient for the entries that follow.
Please give the numeric answer without any surrounding text.

Documented activity coefficient of CCCCO [butan-1-ol] + COCC[N+]1(C)CCCC1.O=S(=O)([N-]S(=O)(=O)C(F)(F)F)C(F)(F)F : 2.6

Documented activity coefficient of CCc1ccccc1 [ethylbenzene] + COCC[N+]1(C)CCCC1.O=S(=O)([N-]S(=O)(=O)C(F)(F)F)C(F)(F)F : 2.24

Documented activity coefficient of CC(C)O [propan-2-ol] + COCC[N+]1(C)CCCC1.O=S(=O)([N-]S(=O)(=O)C(F)(F)F)C(F)(F)F : 1.83

Documented activity coefficient of c1ccsc1 [thiophene] + COCC[N+]1(C)CCCC1.O=S(=O)([N-]S(=O)(=O)C(F)(F)F)C(F)(F)F : 0.897

Documented activity coefficient of c1ccncc1 [pyridine] + COCC[N+]1(C)CCCC1.O=S(=O)([N-]S(=O)(=O)C(F)(F)F)C(F)(F)F : 0.61

Documented activity coefficient of CCCCC [pentane] + COCC[N+]1(C)CCCC1.O=S(=O)([N-]S(=O)(=O)C(F)(F)F)C(F)(F)F : 12.7

Documented activity coefficient of CCC(=O)CC [pentan-3-one] + COCC[N+]1(C)CCCC1.O=S(=O)([N-]S(=O)(=O)C(F)(F)F)C(F)(F)F : 0.851
